assay: Half life in Sprague-Dawley rat at 2 mg/kg,iv by LC-MS/MS analysis; assay type: ADME, organism-based; conditions: in vivo
endpoint: half-life (h)
// note: answer is a bare numeric in h

Challenge: Tell me half-life reported for CCCCNC(=O)/C=C/c1ccc(COC(Cn2ccnc2)c2ccc(Cl)cc2Cl)cc1 (stereo unspecified)
Response given: 1.72

---

tested on: Candida albicans; assay: Antifungal activity against fluconazole-resistant Candida albicans 632 assessed as inhibition of fungal growth by CLSI based microdilution method; assay type: functional
MIC vs 2 µg/mL: less than gives condition met; not less than gives condition not met.

>  <molecule>
O=c1ccc2ccc(COC(Cn3ccnc3)c3ccc(Cl)cc3Cl)cc2o1 (stereo not given)

>  <system.under.test>
Candida albicans

>  <label.value>
condition not met

$$$$

Challenge: API: query returns whether the molecule falls strictly under 2 µg/mL in MIC. Query: Cc1ccc(NC(=O)/C=C/c2ccc(COC(Cn3ccnc3)c3ccc(Cl)cc3Cl)cc2)cc1 (stereo not given)
Response given: condition met

Challenge: API: query returns whether the molecule falls strictly under 2 µg/mL in MIC. Query: CC(C)NC(=O)/C=C/c1ccc(COC(Cn2ccnc2)c2ccc(Cl)cc2Cl)cc1 (stereo not given)
Response given: condition met

Challenge: API: query returns whether the molecule falls strictly under 2 µg/mL in MIC. Query: NC(=O)/C=C/c1ccc(COC(Cn2ccnc2)c2ccc(Cl)cc2Cl)cc1 (stereo not given)
Response given: condition not met

Challenge: API: query returns whether the molecule falls strictly under 2 µg/mL in MIC. Query: OC(Cn1cncn1)(Cn1cncn1)c1ccc(F)cc1F [FLUCONAZOLE]
Response given: condition not met

Challenge: API: query returns whether the molecule falls strictly under 2 µg/mL in MIC. Query: CNC(=O)/C=C/c1ccc(COC(Cn2ccnc2)c2ccc(Cl)cc2Cl)cc1 (stereo not given)
Response given: condition not met

---

system: Aspergillus fumigatus; assay: Antifungal activity against Aspergillus fumigatus CGMCC 3.7795 assessed as inhibition of fungal growth by CLSI protocol based microdilution method; format: functional
endpoint: MIC (µg/mL)
// note: answer is a bare numeric in µg/mL

>  <molecule>
O=C(/C=C/c1ccc(COC(Cn2ccnc2)c2ccc(Cl)cc2Cl)cc1)Nc1ccc(Cl)cc1Cl (stereo unspecified)

>  <system.under.test>
Aspergillus fumigatus

>  <endpoint>
MIC

>  <unit.abbreviation>
µg/mL

>  <value>
0.5

$$$$
>  <molecule>
O=C(/C=C/c1ccc(COC(Cn2ccnc2)c2ccc(Cl)cc2Cl)cc1)Nc1ccc(F)cc1 (stereo unspecified)

>  <system.under.test>
Aspergillus fumigatus

>  <endpoint>
MIC

>  <unit.abbreviation>
µg/mL

>  <value>
1

$$$$
>  <molecule>
O=C(/C=C/c1ccc(COC(Cn2ccnc2)c2ccc(Cl)cc2Cl)cc1)Nc1ccc(C(F)(F)F)cc1 (stereo unspecified)

>  <system.under.test>
Aspergillus fumigatus

>  <endpoint>
MIC

>  <unit.abbreviation>
µg/mL

>  <value>
32

$$$$
>  <molecule>
CC(C)NC(=O)/C=C/c1ccc(COC(Cn2ccnc2)c2ccc(Cl)cc2Cl)cc1 (stereo unspecified)

>  <system.under.test>
Aspergillus fumigatus

>  <endpoint>
MIC

>  <unit.abbreviation>
µg/mL

>  <value>
2

$$$$
>  <molecule>
CCCNC(=O)/C=C/c1ccc(COC(Cn2ccnc2)c2ccc(Cl)cc2Cl)cc1 (stereo unspecified)

>  <system.under.test>
Aspergillus fumigatus

>  <endpoint>
MIC

>  <unit.abbreviation>
µg/mL

>  <value>
4

$$$$
>  <molecule>
O=C(/C=C/c1ccc(COC(Cn2ccnc2)c2ccc(Cl)cc2Cl)cc1)Nc1ccccc1 (stereo unspecified)

>  <system.under.test>
Aspergillus fumigatus

>  <endpoint>
MIC

>  <unit.abbreviation>
µg/mL

>  <value>
1

$$$$
>  <molecule>
Cc1ccccc1NC(=O)/C=C/c1ccc(COC(Cn2ccnc2)c2ccc(Cl)cc2Cl)cc1 (stereo unspecified)

>  <system.under.test>
Aspergillus fumigatus

>  <endpoint>
MIC

>  <unit.abbreviation>
µg/mL

>  <value>
2

$$$$
>  <molecule>
O=C(/C=C/c1ccc(COC(Cn2ccnc2)c2ccc(Cl)cc2Cl)cc1)NC1CC1 (stereo unspecified)

>  <system.under.test>
Aspergillus fumigatus

>  <endpoint>
MIC

>  <unit.abbreviation>
µg/mL

>  <value>
2

$$$$
>  <molecule>
COc1ccc(NC(=O)/C=C/c2ccc(COC(Cn3ccnc3)c3ccc(Cl)cc3Cl)cc2)cc1 (stereo unspecified)

>  <system.under.test>
Aspergillus fumigatus

>  <endpoint>
MIC

>  <unit.abbreviation>
µg/mL

>  <value>
4

$$$$
>  <molecule>
O=C(/C=C/c1ccc(COC(Cn2ccnc2)c2ccc(Cl)cc2Cl)cc1)Nc1cccc(Br)c1 (stereo unspecified)

>  <system.under.test>
Aspergillus fumigatus

>  <endpoint>
MIC

>  <unit.abbreviation>
µg/mL

>  <value>
4

$$$$

# input for lookup
Challenge: Tell me MIC reported for O=c1ccc2ccc(COC(Cn3ccnc3)c3ccc(Cl)cc3Cl)cc2o1 (stereo unspecified)
Response given: 1
